Source: patent US11565998B2

- Experimental Protocol: Caco-2 bioavailability in vitro assay (apparent permeability)
- Format: in vitro ADME
- Measurement Context: human; Caco-2, apical to basolateral, 0.01 mM, pH 7.4, 1 h, 37° C.
Property Label: Papp A→B at 1 h, 0.01 mM (×10⁻⁶ cm/s)
Give just the number in ×10⁻⁶ cm/s; leave the unit off.

Some solved entries appear below for comparison.
> print(dat)
                                   molecule  measure.unit  quantitative.result
1  CCOC(=O)CCC(=O)SC(C)CNC(C)=O (stereo not drawn) [G]    ×10⁻⁶ cm/s                0.087
2  COC(=O)CCC(=O)SC(C)CNC(C)=O (stereo not drawn) [F]    ×10⁻⁶ cm/s                0.145

# evaluate next
Sample CCOC(=O)CCC(=O)SCCNC(C)=O [C] ; Papp A→B at 1 h, 0.01 mM observed: 0.128

---

- Experimental Protocol: Caco-2 bioavailability in vitro assay (apparent permeability)
- Type: in vitro ADME
- Measurement Context: human; Caco-2, apical to basolateral, 0.01 mM, pH 7.4, 1 h, 37° C.
- From the text: […]
Property Label: Papp A→B at 1 h, 0.01 mM (×10⁻⁶ cm/s)
Form entry: value (×10⁻⁶ cm/s) — number only.

Some solved cases for reference:
> print(dat)
                                   molecule  quantitative.result
1  CCN(CC)C(=O)[C@H](CSC(=O)CCC(=O)OC)NC(C)=O [B]                0.192
2  CCN(CC)C(=O)[C@H](CSC(=O)CCC(=O)OC(C)C)NC(C)=O [A]                0.313
3     COC(=O)CCC(=O)SCCNC(C)=O [Compound 1]                0.412
4  CC(=O)NCC(C)SC(=O)CCC(=O)OCC(C)(C)C (stereo not shown) [L]                0.016

The molecule listed as CC(=O)NCC(C)SC(=O)CCC(=O)OC(C)C (stereo not shown) [D] has a reported Papp A→B at 1 h, 0.01 mM of 0.142

Form: molecule = CCOC(=O)CCC(=O)SC[C@H](NC(C)=O)C(=O)N(CC)CC [K] ; Papp A→B at 1 h, 0.01 mM = 0.168

Looking up CCNC(=O)[C@H](CSC(=O)CCC(=O)SC[C@H](NC(=O)CC)C(=O)N(CC)CC)NC(=O)CC [M] , I found its Papp A→B at 1 h, 0.01 mM recorded as 0.097

Form field Papp A→B at 1 h, 0.01 mM, entry O=C1CNC(=O)[C@H](CSC(=O)CCC(=O)SC[C@@H]2NC(=O)CNC2=O)N1 [HI] : 0.262

Value of Papp A→B at 1 h, 0.01 mM reported for the molecule CC(=O)NCCSC(=O)CCC(=O)OC(C)C [J] is 0.135

---

- Experimental Protocol: Aqueous formulations of Compound 1 (water, PBS, saline), concentration by HPLC
- Format: physicochemical
- Measurement Context: aqueous buffer, thermodynamic from solid; pH 7.4, aqueous media tested, room temperature (20-25° C.); read-out: aqueous solubility
Property Label: solubility

The molecule listed as COC(=O)CCC(=O)SCCNC(C)=O [Compound 1] has a reported solubility of ≥ 300 mg/mL

---

- Experimental Protocol: Aqueous formulations of Compound 1 (water, PBS, saline), concentration by HPLC
- Type: physicochemical
- Measurement Context: 50% w/v in 100 mM PBS pH 7.4
Property Label: Calculated concentration by HPLC (mg/mL)
Just the number please, in mg/mL, no unit attached.

> print(dat)
                             molecule  quantitative.result
1  COC(=O)CCC(=O)SCCNC(C)=O [Batch 4]                  526
2  COC(=O)CCC(=O)SCCNC(C)=O [Batch 6]                  543
3  COC(=O)CCC(=O)SCCNC(C)=O [Batch 3]                  535

// next entry
Field Calculated concentration by HPLC (entry COC(=O)CCC(=O)SCCNC(C)=O [Batch 5] ) reads 531

---

- Experimental Protocol: Solubility of batches of different crystallinity
- Type: physicochemical
- Measurement Context: HPLC-grade water, water, thermodynamic from solid, mainly amorphous material (as worded, refers to Example 10); read-out: aqueous solubility
Property Label: solubility at 1.5 h (mg/mL)
Dear colleague, please return just the value in mg/mL, with no unit written.

The recorded solubility at 1.5 h for entry `COC(=O)CCC(=O)SCCNC(C)=O` equals 850

---

- Experimental Protocol: Solubility in aqueous formulations in comparison to other succinate prodrugs
- Type: physicochemical
- Measurement Context: pH 7.4, aqueous buffer, thermodynamic from solid; PBS pH7.4
solubility reference

> print(dat)
                                   compound  property.label  result
1  CC(OC(=O)CCC(=O)O)OC(=O)CCC(=O)O [A, reference compound]      solubility   52 µM

Here is the next item to consider.
solubility reading for `COC(=O)CCC(=O)SCCNC(C)=O` : > 100 µM

---

- Experimental Protocol: Solubility in aqueous formulations in comparison to other succinate prodrugs
- Format: physicochemical
- Measurement Context: aqueous buffer, thermodynamic from solid; PBS (pH 7.4)
Property Label: solubility (mg/mL)
Record the value in mg/mL, omitting the unit from your answer.

For this compound ( `COC(=O)CCC(=O)SCCNC(C)=O` ), measured solubility is 190

---

- Experimental Protocol: Kinetic solubility (turbidity at 620 nm, dissolution rate constant)
- Format: physicochemical
- Measurement Context: dissolution in PBS at 5° C., 460 mg/ml final concentration, 3 mins
Property Label: Rate constants, k (s⁻¹)
Number only, in s⁻¹; omit the unit.

> print(dat)
                              molecule     property.label  measure.unit  quantitative.result
1   COC(=O)CCC(=O)SCCNC(C)=O [Batch 3]  Rate constants, k           s⁻¹                0.014
2  COC(=O)CCC(=O)SCCNC(C)=O [Batch 14]  Rate constants, k           s⁻¹                0.011
3  COC(=O)CCC(=O)SCCNC(C)=O [Batch 15]  Rate constants, k           s⁻¹                0.074
4  COC(=O)CCC(=O)SCCNC(C)=O [Batch 12]  Rate constants, k           s⁻¹                0.022

Summary for this molecule, COC(=O)CCC(=O)SCCNC(C)=O [Batch 16] : Rate constants, k is 0.055

Lab book: Rate constants, k of COC(=O)CCC(=O)SCCNC(C)=O [Batch 17] noted as 0.111

Summary for this molecule, COC(=O)CCC(=O)SCCNC(C)=O [Batch 13] : Rate constants, k is 0.013

---

Listing of entries alongside the reported 400 mg Compound in 0.7 ml Water, Measured Conc..
- Experimental Protocol: Aqueous formulations of Compound 1 (water, PBS, saline), concentration by HPLC
- Format: physicochemical
- Measurement Context: water; 400 mg in 0.7 ml
Unit mg/mL implied. Number only.

Here is how some compounds turned out for 400 mg Compound in 0.7 ml Water, Measured Conc..
> print(dat)
                              compound  quantitative.result
1  COC(=O)CCC(=O)SCCNC(C)=O [Batch 14]                  366
2  COC(=O)CCC(=O)SCCNC(C)=O [Batch 16]                  435
3   COC(=O)CCC(=O)SCCNC(C)=O [Batch 3]                  381
4  COC(=O)CCC(=O)SCCNC(C)=O [Batch 12]                  378
5  COC(=O)CCC(=O)SCCNC(C)=O [Batch 15]                  414

Next, consider the following compound.
Looking up COC(=O)CCC(=O)SCCNC(C)=O [Batch 13] , I see its 400 mg Compound in 0.7 ml Water, Measured Conc. listed as 395
